System Under Test: Hemagglutinin of influenza A/Solomon Islands/3/06 (H1N1) on whole virions (Influenza A virus A/Solomon …)
Assay Info: cell-based or functional assay
Observed Property: % Neutralization
Your reply should be a number followed by the unit it is expressed in.

Binder | % Neutralization
TCN-529 (5297_H01) (antibody, V domains shown) VH: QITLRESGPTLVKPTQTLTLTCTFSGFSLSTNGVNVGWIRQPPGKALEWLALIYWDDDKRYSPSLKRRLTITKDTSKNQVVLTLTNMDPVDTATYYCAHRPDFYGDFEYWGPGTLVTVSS VL: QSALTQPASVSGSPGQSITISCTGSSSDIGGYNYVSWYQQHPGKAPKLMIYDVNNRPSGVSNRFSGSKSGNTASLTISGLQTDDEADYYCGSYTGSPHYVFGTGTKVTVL | 0%

Next, consider the following binder.
For record TCN-554 (5277_M05) (antibody, V domains shown) VH: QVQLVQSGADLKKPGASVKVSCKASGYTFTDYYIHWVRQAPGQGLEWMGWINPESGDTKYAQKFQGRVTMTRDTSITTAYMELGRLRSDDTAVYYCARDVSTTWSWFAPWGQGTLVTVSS VL: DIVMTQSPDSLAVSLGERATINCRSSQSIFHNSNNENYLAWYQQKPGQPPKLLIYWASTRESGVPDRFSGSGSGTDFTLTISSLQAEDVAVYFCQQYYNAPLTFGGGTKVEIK the listed % Neutralization is 42%

Data provenance: patent US20150104459A1
